Hello, the source for this data is ChEMBL document CHEMBL1131783, in case you need it.

- experimental-target: UniProt:P26255
- test-protocol: Beta-3-adrenergic activity measured by percent response against free fatty acid (FFA) in rat plasma at a dosage of 0.1 mg/kg
- Type: functional, organism-based
- Parameters: dose 0.1 mg/kg
endpoint: Response (%)

Please review the following examples before continuing.
CCOC(=O)COC(=O)C1(C(=O)OCC(=O)OCC)Oc2ccc(C[C@@H](C)NC[C@H](O)c3cccc(Cl)c3)cc2O1 ... 22
CC(C)OC(=O)COC(=O)C1(C(=O)OCC(=O)OC(C)C)Oc2ccc(C[C@@H](C)NC[C@H](O)c3cccc(Cl)c3)cc2O1 ... 78
CC(C)CCC(=O)OCOC(=O)C1(C(=O)OCOC(=O)CCC(C)C)Oc2ccc(C[C@@H](C)NC[C@H](O)c3cccc(Cl)c3)cc2O1 ... 37

P = CC(OC(=O)c1ccccc1)OC(=O)C1(C(=O)OC(C)OC(=O)c2ccccc2)Oc2ccc(C[C@@H](C)NC[C@H](O)c3cccc(Cl)c3)cc2O1 (some centres undefined)
Q = C[C@H](Cc1ccc2c(c1)OC(C(=O)OC1CCCC1)(C(=O)OC1CCCC1)O2)NC[C@H](O)c1cccc(Cl)c1
R = C[C@H](Cc1ccc2c(c1)OC(C(=O)OCOC(=O)C1CCCCC1)(C(=O)OCOC(=O)C1CCCCC1)O2)NC[C@H](O)c1cccc(Cl)c1
S = C[C@H](Cc1ccc2c(c1)OC(C(=O)OCCc1cccs1)(C(=O)OCCc1cccs1)O2)NC[C@H](O)c1cccc(Cl)c1
T = CCCCCCOC(=O)C1(C(=O)OCCCCCC)Oc2ccc(C[C@@H](C)NC[C@H](O)c3cccc(Cl)c3)cc2O1
Data request: Ranking field: Response; order: falling. Form entry: ranked labels (order as requested).
Data returned: Q, S, T, P, R

a = C[C@H](Cc1ccc2c(c1)OC(C(=O)OCCc1cccc(C(F)(F)F)c1)(C(=O)OCCc1cccc(C(F)(F)F)c1)O2)NC[C@H](O)c1cccc(Cl)c1
b = CCCCOC(=O)C1(C(=O)OCCCC)Oc2ccc(C[C@@H](C)NC[C@H](O)c3cccc(Cl)c3)cc2O1
Data request: // which entry has the larger Response value, a or b ? Write down the label attached to your selection.
Data returned: b

###

- experimental-target: Beta-3 adrenergic receptor (Rattus norvegicus) (UniProt P26255)
- Sequence (P26255 whole entry): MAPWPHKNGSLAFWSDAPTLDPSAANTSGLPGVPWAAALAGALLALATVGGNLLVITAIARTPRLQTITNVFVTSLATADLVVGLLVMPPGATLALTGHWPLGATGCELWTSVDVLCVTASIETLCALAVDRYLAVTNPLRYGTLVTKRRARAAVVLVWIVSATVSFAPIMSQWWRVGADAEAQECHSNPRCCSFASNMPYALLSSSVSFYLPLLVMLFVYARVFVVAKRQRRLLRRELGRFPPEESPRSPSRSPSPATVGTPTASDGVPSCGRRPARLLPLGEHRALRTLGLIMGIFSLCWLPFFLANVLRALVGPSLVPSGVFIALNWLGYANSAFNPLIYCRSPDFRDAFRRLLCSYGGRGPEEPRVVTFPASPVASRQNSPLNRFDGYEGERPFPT
- test-protocol: Beta-3-adrenergic activity measured by percent response against free fatty acid (FFA) in rat plasma at a dosage of 0.1 mg/kg
- Assay type: functional, organism-based
- Parameters: dose 0.1 mg/kg
endpoint: Response (%)

Cc1cccc(CCOC(=O)C2(C(=O)OCCc3cccc(C)c3)Oc3ccc(C[C@@H](C)NC[C@H](O)c4cccc(Cl)c4)cc3O2)c1 ... 39

I = CC(C)OC(=O)C1(C(=O)OC(C)C)Oc2ccc(C[C@@H](C)NC[C@H](O)c3cccc(Cl)c3)cc2O1
II = CC(OC(=O)C(C)(C)C)OC(=O)C1(C(=O)OC(C)OC(=O)C(C)(C)C)Oc2ccc(C[C@@H](C)NC[C@H](O)c3cccc(Cl)c3)cc2O1 (some centres undefined)
Data request: // which entry has the larger Response value, I or II ? Write down the label attached to your selection.
Data returned: I
(I: 100%, II: 23%)

###

- experimental-target: Beta-3 adrenergic receptor (Rattus norvegicus) (UniProt P26255)
- test-protocol: Beta-3-adrenergic activity measured by percent response against free fatty acid (FFA) in rat plasma at a dosage of 0.1 mg/kg
- Format: functional, organism-based
- Set-up: dose 0.1 mg/kg
endpoint: Response (%)

C[C@H](Cc1ccc2c(c1)OC(C(=O)OCc1cccc(Cl)c1)(C(=O)OCc1cccc(Cl)c1)O2)NC[C@H](O)c1cccc(Cl)c1 ... 46

A = C[C@H](Cc1ccc2c(c1)OC(C(=O)O)(C(=O)OCC[Si](C)(C)C)O2)NC[C@H](O)c1cccc(Cl)c1 (some centres undefined)
B = C[C@H](Cc1ccc2c(c1)OC(C(=O)OCC1CCOC1)(C(=O)OCC1CCOC1)O2)NC[C@H](O)c1cccc(Cl)c1 (some centres undefined)
Data request: Could you tell me which of these two has the smaller Response figure? First: A Second: B Write down the label attached to your selection.
Data returned: A
(A: 30%, B: 68%)

A = CC(C)C(=O)OCOC(=O)C1(C(=O)OCOC(=O)C(C)C)Oc2ccc(C[C@@H](C)NC[C@H](O)c3cccc(Cl)c3)cc2O1
B = C[C@H](Cc1ccc2c(c1)OC(C(=O)O)(C(=O)OCCOc1ccccc1)O2)NC[C@H](O)c1cccc(Cl)c1 (some centres undefined)
Data request: // which entry has the larger Response value, A or B ? Write down the label attached to your selection.
Data returned: B
(B: 51%, A: 26%)

a = CCCCCCCCOC(=O)C1(C(=O)O)Oc2ccc(C[C@@H](C)NC[C@H](O)c3cccc(Cl)c3)cc2O1 (some centres undefined)
b = C[C@H](Cc1ccc2c(c1)OC(C(=O)OCCC(C)(C)C)(C(=O)OCCC(C)(C)C)O2)NC[C@H](O)c1cccc(Cl)c1
c = C[C@H](Cc1ccc2c(c1)OC(C(=O)OCCOc1ccc(Cl)cc1)(C(=O)OCCOc1ccc(Cl)cc1)O2)NC[C@H](O)c1cccc(Cl)c1
Data request: Ranking field: Response; order: falling. Form entry: ranked labels (order as requested).
Data returned: b, a, c
(b: 71%, a: 45%, c: 26%)

###

- experimental-target: Beta-3 adrenergic receptor (Rattus norvegicus)
- test-protocol: Beta-3-adrenergic activity measured by percent response against free fatty acid (FFA) in rat plasma at a dosage of 0.1 mg/kg
- Format: functional, organism-based
- Parameters: dose 0.1 mg/kg
endpoint: Response (%)

Please review the following examples before continuing.
COCCOC(=O)C1(C(=O)O)Oc2ccc(C[C@@H](C)NC[C@H](O)c3cccc(Cl)c3)cc2O1 (stereo not given in full) ... 85
C[C@H](Cc1ccc2c(c1)OC(C(=O)OCC1(C)CCCCC1)(C(=O)OCC1(C)CCCCC1)O2)NC[C@H](O)c1cccc(Cl)c1 ... 84

I = CC(C)OCCOC(=O)C1(C(=O)OCCOC(C)C)Oc2ccc(C[C@@H](C)NC[C@H](O)c3cccc(Cl)c3)cc2O1
II = C[C@H](Cc1ccc2c(c1)OC(C(=O)OCOC(=O)C(C)(C)C)(C(=O)OCOC(=O)C(C)(C)C)O2)NC[C@H](O)c1cccc(Cl)c1
III = C[C@H](Cc1ccc2c(c1)OC(C(=O)OC1CCCCC1)(C(=O)OC1CCCCC1)O2)NC[C@H](O)c1cccc(Cl)c1
IV = C[C@H](Cc1ccc2c(c1)OC(C(=O)OCOC(=O)c1ccccc1)(C(=O)OCOC(=O)c1ccccc1)O2)NC[C@H](O)c1cccc(Cl)c1
Data request: Write the entries in order, lowest recorded Response first. Form entry: ranked labels (order as requested).
Data returned: II, IV, III, I

a = C[C@H](Cc1ccc2c(c1)OC(C(=O)OCCOCc1ccccc1)(C(=O)OCCOCc1ccccc1)O2)NC[C@H](O)c1cccc(Cl)c1
b = C[C@H](Cc1ccc2c(c1)OC(C(=O)OCC1CCC1)(C(=O)OCC1CCC1)O2)NC[C@H](O)c1cccc(Cl)c1
c = CCC(CC)COC(=O)C1(C(=O)O)Oc2ccc(C[C@@H](C)NC[C@H](O)c3cccc(Cl)c3)cc2O1 (stereo not given in full)
Data request: Write the entries in order, lowest recorded Response first. Form entry: ranked labels (order as requested).
Data returned: c, b, a

a = C[C@H](Cc1ccc2c(c1)OC(C(=O)O)(C(=O)OCCC(C)(C)C)O2)NC[C@H](O)c1cccc(Cl)c1 (stereo not given in full)
b = COC(=O)C(C)OC(=O)C1(C(=O)OC(C)C(=O)OC)Oc2ccc(C[C@@H](C)NC[C@H](O)c3cccc(Cl)c3)cc2O1 (stereo not given in full)
Data request: // which entry has the larger Response value, a or b ? Write down the label attached to your selection.
Data returned: a

###

- experimental-target: Beta-3 adrenergic receptor (Rattus norvegicus) (UniProt P26255)
- test-protocol: Beta-3-adrenergic activity measured by percent response against free fatty acid (FFA) in rat plasma at a dosage of 0.1 mg/kg
- Type: functional, organism-based
- Parameters: dose 0.1 mg/kg
endpoint: Response (%)

C[C@H](Cc1ccc2c(c1)OC(C(=O)O)(C(=O)OCCOCc1ccccc1)O2)NC[C@H](O)c1cccc(Cl)c1 (some centres not stated) ... 109
C[C@H](Cc1ccc2c(c1)OC(C(=O)OCC1CC1)(C(=O)OCC1CC1)O2)NC[C@H](O)c1cccc(Cl)c1 ... 99
CCCCOCCOC(=O)C1(C(=O)OCCOCCCC)Oc2ccc(C[C@@H](C)NC[C@H](O)c3cccc(Cl)c3)cc2O1 ... 58
C[C@H](Cc1ccc2c(c1)OC(C(=O)OCC[Si](C)(C)C)(C(=O)OCC[Si](C)(C)C)O2)NC[C@H](O)c1cccc(Cl)c1 ... 60
C[C@H](Cc1ccc2c(c1)OC(C(=O)OCC(C)(C)CO)(C(=O)OCC(C)(C)CO)O2)NC[C@H](O)c1cccc(Cl)c1 ... 78
C[C@H](Cc1ccc2c(c1)OC(C(=O)OCCc1ccsc1)(C(=O)OCCc1ccsc1)O2)NC[C@H](O)c1cccc(Cl)c1 ... 80
CCOCCOC(=O)C1(C(=O)O)Oc2ccc(C[C@@H](C)NC[C@H](O)c3cccc(Cl)c3)cc2O1 (some centres not stated) ... 73
